// reported activity change, positive = activation for each item listed
- Experiment notes: qHTS assay to identify small molecule agonists of the estrogen related receptor (ERR) signaling pathway from Tox21 library (AID 1224849); further: on the % scale 0 is the no-effect control and ±100 the full control effect; nearly all actives have a fitted effect of over 15% in size
- Condition label: ERR reporter cell line, ONE-Glo luciferase, 18 h; at 92.4 µM (top of the series) unless noted
Active and inactive are the calls of the source. The call rests on the fitted dose curve.

Cc1ccc2ccc3cccc4ccc1c2c34; -32.5% (inactive)
CCOC(=O)[C@@](C)(N)Cc1ccc(O)c(O)c1; -0.831% [at 42.5 µM] (inactive)
O=C1OC(OC(=O)c2cccnc2Nc2cccc(C(F)(F)F)c2)c2ccccc21 (stereo unspecified); -0.557% [at 42.5 µM] (inactive)

The measured activity change, positive = activation associated with CCc1cccc(CC)c1N(COC)C(=O)CS(=O)(=O)O reads -4.79% (inactive)

The measured activity change, positive = activation associated with O=C1NCN(c2ccccc2)C12CCN(CCCC(c1ccc(F)cc1)c1ccc(F)cc1)CC2 reads -32.9% [at 42.5 µM] (inactive)

The measured activity change, positive = activation associated with CC(=O)OC1CCCCC1 reads 5.62% (inactive)

----------
- Experiment notes: qHTS assay to identify small molecule agonists of H2AX - cell viability counter screen (AID 1224847); further: nearly all actives have a fitted effect of over 30% in size
- Condition label: CHO-K1 viability, CellTiter-Glo luminescence, 3 h; series mostly up to 154 µM
- Text: National Center for Advancing Translational Sciences [NCATS] NIH Chemical Genomics Center [NCGC] U.S. Environmental Protection Agency [EPA] National Institutes of Environmental Health Sciences [NIEHS] National Toxicology Program [NTP] U.S. Food and Drug Administration [FDA] HTRF phospho-H2AX (Ser139) assay (Cisbio Bioassays, US) enables the quantitative detection of the histone variant H2AX when phosphorylated on serine 139. […]
Records with an inconclusive call do not appear. Calls of active or inactive are those of the source. The call rests on the fitted dose curve.
Outcome (select one): TRUE (active), FALSE (inactive)

CC1CCCCN1CCCOC(=O)c1ccc(OC2CCCCC2)cc1 (stereo unspecified); FALSE

GET /call?item= CCN=C1C=CC(=C(c2ccc(N(CC)CC)cc2)c2ccc(N(CC)CC)cc2)c2ccccc21 returns the recorded outcome of this test.
TRUE

GET /call?item= CCc1ccc(C)nc1 returns the recorded outcome of this test.
FALSE

GET /call?item= O=C1NCN(c2ccccc2)C12CCN(CCCC(c1ccc(F)cc1)c1ccc(F)cc1)CC2 returns the recorded outcome of this test.
TRUE

GET /call?item= CCOC(=O)[C@@](C)(N)Cc1ccc(O)c(O)c1 returns the recorded outcome of this test.
FALSE

GET /call?item= COc1cccc(O)c1 returns the recorded outcome of this test.
FALSE

----------
- Experiment notes: A CellTox Green Cytotoxicity Assay to monitor cytotoxicity in HepG2 cells - 40 hour (AID 1224879); further: nearly all actives have a fitted effect of over 40% in size
- Condition label: CellTox Green fluorescence; series mostly up to 76.8 µM
- From the text: National Center for Advancing Translational Sciences [NCATS] NIH Chemical Genomics Center [NCGC] U.S. Environmental Protection Agency [EPA] National Institutes of Environmental Health Sciences [NIEHS] National Toxicology Program [NTP] Cell-based models are critical for drug discovery. […] Viable cells produce no appreciable increases in fluorescence. Therefore, the fluorescence signal produced by the binding interaction with dead cell DNA is proportional to cytotoxicity. […]
Records with an inconclusive call do not appear. Active and inactive are the calls of the source. The call rests on the fitted dose curve; in most records, active means well fitted activation curve with a large enough effect in the repeat runs; inconclusive means weak or mixed curves; inactive means flat fitted curve, though single readings scatter.
Outcome (select one): active, inactive

GET /call?item= CCC(C)(C)c1cc(O)c(C(C)(C)CC)cc1O returns the recorded outcome of this test.
active

GET /call?item= Clc1ccc(C(c2ccccc2Cl)C(Cl)Cl)cc1 (centres undefined) returns the recorded outcome of this test.
inactive

GET /call?item= COc1cc(C=C2CCC/C(=C\c3ccc(O)c(OC)c3)C2=O)ccc1O returns the recorded outcome of this test.
active

GET /call?item= CN(C)c1ccc(N=NS(=O)(=O)O)cc1 returns the recorded outcome of this test.
inactive

Provenance of the data: PubChem BioAssay (Tox21)
